Attribution: patent US20090311295A1

Experiment: Solubility of raw materials and polymer melt mixtures
Settings: water
quantity.name: water solubility

molecule="O=C1/C(=C2\\Nc3ccc(S(=O)(=O)[O-])cc3C2=O)Nc2ccc(S(=O)(=O)[O-])cc21.[Na+].[Na+] [FD&C blue #2]" result="very water soluble"
molecule="CC1(C)C(/C=C/C=C/C=C/C=C2\\N(CCCCS(=O)(=O)O)c3ccc4ccccc4c3C2(C)C)=[N+](CCCCS(=O)(=O)[O-])c2ccc3ccccc3c21 [Indocyanine green]" result="very water soluble"
molecule="CCN(Cc1cccc(S(=O)(=O)[O-])c1)c1ccc(C(=C2C=CC(=[N+](CC)Cc3cccc(S(=O)(=O)[O-])c3)C=C2)c2ccccc2S(=O)(=O)[O-])cc1.[Na+].[Na+] [FD&C blue #1]" result="very water soluble"

* * *

Experiment: Solubility of raw materials and polymer melt mixtures
Settings: methylene chloride, Table III
quantity.name: MeCl2 Solubility

compound="CCN(Cc1cccc(S(=O)(=O)[O-])c1)c1ccc(C(=C2C=CC(=[N+](CC)Cc3cccc(S(=O)(=O)[O-])c3)C=C2)c2ccccc2S(=O)(=O)[O-])cc1.[Na+].[Na+] [FD&C blue #1]" result=−
compound="CC1=C(/C=C/C(C)=C/C=C/C(C)=C/C=C/C=C(C)/C=C/C=C(C)/C=C/C2=C(C)CCCC2(C)C)C(C)(C)CCC1 [beta-Carotene, β-carotene]" result=+
compound="[Cu+2].c1ccc2c(c1)-c1nc-2nc2[n-]c(nc3nc(nc4[n-]c(n1)c1ccccc41)-c1ccccc1-3)c1ccccc21 [Copper(II) phthalocyanine]" result=−
compound="O=C1/C(=C2\\Nc3ccc(S(=O)(=O)[O-])cc3C2=O)Nc2ccc(S(=O)(=O)[O-])cc21.[Na+].[Na+] [FD&C blue #2]" result=−
compound="CC1(C)C(/C=C/C=C/C=C/C=C2\\N(CCCCS(=O)(=O)O)c3ccc4ccccc4c3C2(C)C)=[N+](CCCCS(=O)(=O)[O-])c2ccc3ccccc3c21 [Indocyanine green]" result=−

* * *

Test: X-ray diffraction (XRD) crystallinity
Assay type: physicochemical
Details: crystalline area divided by total scan area
quantity.name: XRD % Crystallinity (%)

smiles_entry=CCOc1ccc(Nc2ccc(/C(=C3C=C/C(=[N+](/CC)Cc4cccc(S(=O)(=O)[O-])c4)C=C/3C)c3ccc(N(CC)Cc4cccc(S(=O)(=O)[O-])c4)cc3C)cc2)cc1.[Na+] number=22.3
smiles_entry=[Cu+2].c1ccc2c(c1)-c1nc-2nc2[n-]c(nc3nc(nc4[n-]c(n1)c1ccccc41)-c1ccccc1-3)c1ccccc21 number=67.1
smiles_entry=O=C1/C(=C2\Nc3ccc(S(=O)(=O)[O-])cc3C2=O)Nc2ccc(S(=O)(=O)[O-])cc21.[Na+].[Na+] number=36.4
smiles_entry=CC1(C)C(/C=C/C=C/C=C/C=C2\N(CCCCS(=O)(=O)O)c3ccc4ccccc4c3C2(C)C)=[N+](CCCCS(=O)(=O)[O-])c2ccc3ccccc3c21 number=24.8
